All figures here come from patent US9403874B2.

- Tested on: IL-2
- Assay protocol: Reduction of IL-2 secretion in activated B cells (ELISA)
- Assay type: cell-based
- Condition description: 100 ng/me of peptide; EBV-infected B cells stimulated with anti-CD150; ELISA of culture supernatant
Measured Inhibition rate of each cytokine compared to CD150-stimulated EBV-t B cells (%) IL-2 by item
Give the number; % is assumed, so skip it.

Use the examples below as a reference point.
{"Substance": "RDGRTD (SIS-1#17 peptide)", "Measurement target": "IL-2", "Assay result": 17.0}
{"Substance": "DGRTDG (SIS-1#9 peptide)", "Measurement target": "IL-2", "Assay result": 15.5}

Lookup result for MSLPSPRDGRTDG (SIS-1#4 peptide) ; measured Inhibition rate of each cytokine compared to CD150-stimulated EBV-t B cells (%) IL-2: 18.8
